Tested on: HEK-293T
Test summary: Multiplex assay against HEK293T
Format: toxicity, cell-based
Test conditions: human, 48 h, 1 µM, compound concentration 1 uM, replicate 1
Readout kind: Population Pyknosed Nuclei (%)
Field: numeric (%). Do not append units.

Sample answers from the record:
Compound	Study system	Unit tag	Population Pyknosed Nuclei (%)
COC[C@@H](c1ccc(C(F)(F)F)cc1)N1CCN(C2(C)CCN(C(=O)c3c(C)ncnc3C)CC2)C[C@@H]1C.O=C(O)/C=C\C(=O)O [VICRIVIROC MALEATE]	HEK-293T	%	7
Cc1sc2c(c1C)C(c1ccc(Cl)cc1)=N[C@@H](CC(=O)NCCCCCCCCNC(=O)COc1cccc3c1C(=O)N(C1CCC(=O)NC1=O)C3=O)c1nnc(C)n1-2 (stereo partly drawn)	HEK-293T	%	33
O=C(CCCc1ccccc1)Nc1nc2ccccc2c(=O)s1	HEK-293T	%	6
CC(=O)Nc1cccc2c1c(Sc1ccc(Cl)cc1)c(C)n2CC(=O)O [AZD1981]	HEK-293T	%	6
CCc1cc2cc(NS(=O)(=O)c3ccc(C#N)cc3)ccc2n(CC)c1=O	HEK-293T	%	6

Recorded result, Cc1cccc(NC(=O)CN2CCC(c3ccccn3)CC2)c1.Cl.Cl , Population Pyknosed Nuclei (%): 9

Recorded result, C[C@H](N)COC(=O)[C@@H](CCCCN)NC(=O)Cc1c(-c2ccc3ccccc3c2)[nH]c2c1ccc1ccccc12 , Population Pyknosed Nuclei (%): 7

Recorded result, O=C1[C@H](Cc2ccc(O)cc2)N2C(=O)CCN(C(=O)NCc3ccccc3)[C@H]2CN1Cc1cccc2ccccc12 , Population Pyknosed Nuclei (%): 6

---

Test system: HEK-293T
Test summary: Multiplex assay against HEK293T
Type: toxicity, cell-based
Test conditions: human, 12 h, 10 µM, compound concentration 10 uM, replicate 1
Sorting guide: entries reporting Population Tubulin-Different-Phenotype (%) beneath 30% go in the 1 (yes) pile, the rest go in the 0 (no) pile.

> print(dat)
                                   compound  assigned.class
1  CC(/C=C1\SC(=S)N(CCCC(=O)Nc2ccc(C(=O)O)c(O)c2)C1=O)=C\c1ccccc1          0 (no)
2  COc1ccccc1N1CCN(C[C@@H](C(=O)NC(C)(C)C)c2ccccc2)CC1.Cl.Cl          0 (no)
3  C[C@H](N)COC(=O)[C@@H](CCCCN)NC(=O)Cc1c(-c2ccc3ccccc3c2)[nH]c2c1ccc1ccccc12          0 (no)

Problem: For the compound Cc1onc(-c2ccccc2Cl)c1C(=O)N(C)c1ccc(Cl)cc1 , is Population Tubulin-Different-Phenotype (%) under 30%?
0 (no)

Problem: For the compound CC(C)COc1ccc(CNC(=O)N(Cc2ccc(F)cc2)C2CCN(C)CC2)cc1 , is Population Tubulin-Different-Phenotype (%) under 30%?
0 (no)

Problem: For the compound Cc1c(CC(=O)O)c2cccnc2n1Cc1ccc(S(C)(=O)=O)cc1C(F)(F)F , is Population Tubulin-Different-Phenotype (%) under 30%?
1 (yes)

---

Tested on: U2OS
Test summary: Multiplex assay against U2OS
Format: toxicity, cell-based
Test conditions: human, 12 h, 10 µM, compound concentration 10 uM, replicate 2
param class (str): category from Population Tubulin-Different-Phenotype (%); see ranges 1 = under 5%, 2 = from 5% up to 20%, 3 = 20% and over

Molecule	Assigned class
Cc1cccc(NC(=O)CN2CCC(c3ccccn3)CC2)c1.Cl.Cl	2
CN[C@@H](C)C(=O)N[C@H](C(=O)N1CCC[C@H]1C(=O)Nc1snnc1-c1ccccc1)C1CCCCC1	3

Which bin, given its Population Tubulin-Different-Phenotype (%), does CN1CCN(c2cc(-c3ccccc3)nc(N)n2)CC1 occupy?
2

Which bin, given its Population Tubulin-Different-Phenotype (%), does N#Cc1cc(F)cc(-c2nc(-c3ccc(F)cn3)no2)c1 occupy?
1

Which bin, given its Population Tubulin-Different-Phenotype (%), does CC[C@@H](C)Nc1nc(C)nc2c(-c3ccc(OC)nc3C)c(C)nn12 occupy?
1

Which bin, given its Population Tubulin-Different-Phenotype (%), does O=C(CCCc1ccccc1)Nc1nc2ccccc2c(=O)s1 occupy?
2

---

Test system: Fibroblast
Test summary: Multiplex assay against human fibroblast
Type: toxicity, cell-based
Test conditions: 48 h, 10 µM, compound concentration 10 uM, replicate 1
Readout kind: Total Cell Count
Form field (numeric): enter value without unit.

// returns Total Cell Count for CCCCC1=NC2(CCCC2)C(=O)N1Cc1ccc(-c2ccccc2-c2nnn[nH]2)cc1 [IRBESARTAN] with Fibroblast; value = 141

// returns Total Cell Count for Cc1c(CC(=O)O)c2cccnc2n1Cc1ccc(S(C)(=O)=O)cc1C(F)(F)F [FEVIPIPRANT] with Fibroblast; value = 132

---

Test system: Fibroblast
Test summary: Multiplex assay against human fibroblast
Format: toxicity, cell-based
Test conditions: 24 h, 10 µM, compound concentration 10 uM, replicate 1
Readout kind: Total Cell Count
Form field (numeric): enter value without unit.

> print(dat)
                                   molecule  study.system  recorded.value
1  Br.CS(=O)(=O)Nc1c(O)ccc2c1CCCC2C1=NCCN1 (stereo not given)    Fibroblast             148
2        CCCOc1ccc2[nH]cc(C3=CCNCC3)c2n1.Cl    Fibroblast             159
3    N#Cc1cc(F)cc(-c2nc(-c3ccc(F)cn3)no2)c1    Fibroblast             170
4  O=C(NCCN1CCC(n2c(=O)[nH]c3cc(Cl)ccc32)CC1)c1ccc(F)cc1 [HALOPEMIDE]    Fibroblast             220

Next, consider the following molecule.
// returns Total Cell Count for CC(C)(C)c1cc(NC(=O)Nc2ccc(-c3cn4c(n3)sc3cc(OCCN5CCOCC5)ccc34)cc2)no1 with Fibroblast; value = 190

---

Each entry below carries its recorded Population Tubulin-Different-Phenotype (%).
Tested on: HEK-293T
Test summary: Multiplex assay against HEK293T
Format: toxicity, cell-based
Test conditions: human, 12 h, 10 µM, compound concentration 10 uM, replicate 2
Field: numeric (%). Do not append units.

Sample answers from the record:
Compound	Recorded value
CC(=O)Nc1cccc2c1c(Sc1ccc(Cl)cc1)c(C)n2CC(=O)O	26
CCc1cc2cc(NS(=O)(=O)c3ccc(C#N)cc3)ccc2n(CC)c1=O	41
Cc1sc2c(c1C)C(c1ccc(Cl)cc1)=N[C@@H](CC(=O)NCCCCCCCCNC(=O)COc1cccc3c1C(=O)N(C1CCC(=O)NC1=O)C3=O)c1nnc(C)n1-2 (stereo partly specified)	39
CN1CCN(c2cc(-c3ccccc3)nc(N)n2)CC1	20
CCCCC1=NC2(CCCC2)C(=O)N1Cc1ccc(-c2ccccc2-c2nnn[nH]2)cc1	33

Next, consider the following compound.
// returns Population Tubulin-Different-Phenotype (%) for N#Cc1c(Oc2cccc(OS(=O)(=O)CCCC(F)(F)F)c2)cccc1C(F)(F)F with HEK-293T; value = 58

---

Test system: HEK-293T
Test summary: Multiplex assay against HEK293T
Format: toxicity, cell-based
Test conditions: human, 48 h, 10 µM, compound concentration 10 uM, replicate 2
Each entry below carries its recorded Population Normal (%).
Please answer using the number first and the unit second.

Sample answers from the record:
Compound	Study system	Recorded value
Cl.N=C(N)NC(=O)Cc1c(Cl)cccc1Cl [GUANFACINE HYDROCHLORIDE]	HEK-293T	89%
N#Cc1cc(F)cc(-c2nc(-c3ccc(F)cn3)no2)c1	HEK-293T	95%
NCCc1cn(S(=O)(=O)c2c(Cl)nc3sccn23)c2ccccc12.O=C(O)C(=O)O	HEK-293T	52%

Recorded result, Cc1c(CC(=O)O)c2cccnc2n1Cc1ccc(S(C)(=O)=O)cc1C(F)(F)F , Population Normal (%): 92%

Recorded result, CN[C@@H](C)C(=O)N[C@H](C(=O)N1CCC[C@H]1C(=O)Nc1snnc1-c1ccccc1)C1CCCCC1 , Population Normal (%): 78%

Recorded result, Cc1sc2c(c1C)C(c1ccc(Cl)cc1)=N[C@@H](CC(=O)NCCCCCCCCNC(=O)COc1cccc3c1C(=O)N(C1CCC(=O)NC1=O)C3=O)c1nnc(C)n1-2 (stereo partly drawn) , Population Normal (%): 69%

Recorded result, CCCOc1ccc2[nH]cc(C3=CCNCC3)c2n1.Cl , Population Normal (%): 94%

Recorded result, CC(C)COc1ccc(CNC(=O)N(Cc2ccc(F)cc2)C2CCN(C)CC2)cc1 , Population Normal (%): 40%

---

Test system: HEK-293T
Test summary: Multiplex assay against HEK293T
Assay type: toxicity, cell-based
Test conditions: human, 24 h, 1 µM, compound concentration 1 uM, replicate 2
Sorting guide: entries reporting Population Healthy Nuclei (%) beneath 80% go in the Met pile, the rest go in the Not met pile.

Compound	Study system	Assigned class
COc1ccccc1N1CCN(C[C@@H](C(=O)NC(C)(C)C)c2ccccc2)CC1.Cl.Cl	HEK-293T	Met

Below: the item to evaluate.
Problem: For the compound CC(/C=C1\SC(=S)N(CCCC(=O)Nc2ccc(C(=O)O)c(O)c2)C1=O)=C\c1ccccc1 , is Population Healthy Nuclei (%) under 80%?
Not met
